As shown below, each of these molecules has a reported IC50 value.
# test_system: VIM-1 (Pseudomonas aeruginosa)
# experiment_notes: MBL inhibition, FC-5 fluorescence assay, VIM-1
# Type: biochemical
# experimental_parameters: FC-5 cephalosporin substrate, ranges of obtained pIC50, read-out: pIC50 VIM-1 (converted)

The following molecules have reported results that may help.
C[C@@H](c1cccc2c(-c3ccc(CS(C)(=O)=O)c(F)c3)c(C(=O)O)[nH]c12)N1CC2(CNC2)OC1=O [IC-65]: 1 to 10 nM
CC(NC(=O)C[C@H]1CC[C@H](N)CC1)c1cccc2c(-c3ccc(CS(C)(=O)=O)c(F)c3)c(C(=O)O)[nH]c12 (mixture of isomers) [IC-100]: > 10 nM
C[C@H](OCc1ccc(CN)cc1)c1cccc2c(-c3ccc(CS(C)(=O)=O)c(Cl)c3)c(C(=O)O)[nH]c12 (single isomer, unassigned) [IC-87]: 1 to 10 nM
C[C@@H](c1cccc2c(-c3ccc(NS(C)(=O)=O)c(F)c3)c(C(=O)O)[nH]c12)N1C[C@]2(C[C@@H](CN)C2)OC1=O [IC-14]: 0.1 to 1 nM
CC(NC(=O)Nc1ccc(CN)cc1)c1cccc2c(-c3ccc(CS(C)(=O)=O)c(F)c3)c(C(=O)O)[nH]c12 (stereo not shown) [IC-102]: > 10 nM

So what's the measured IC50 for this one? COc1cc(-c2c(C(=O)O)[nH]c3c([C@H](C)n4cc(CN5CC(N)C5)oc4=O)cccc23)ccn1 [IC-56]
> 10 nM

Next molecule: CC(OCc1ccc(CN)cc1)c1cccc2c(-c3ccc(NS(C)(=O)=O)c(C#N)c3)c(C(=O)O)[nH]c12 (stereo not shown) [IC-86]
> 10 nM

----------
# test_system: VIM-2 (Escherichia coli)
# experiment_notes: MBL inhibition, FC-5 fluorescence assay, VIM-2
# Format: biochemical
# experimental_parameters: FC-5 cephalosporin substrate, ranges of obtained pIC50, read-out: pIC50 VIM-2 (converted)
As shown below, each of these compounds has a reported IC50 value.

CC(c1cccs1)c1cccc2c(-c3ccc(CS(C)(=O)=O)c(F)c3)c(C(=O)O)[nH]c12 (stereo not drawn): 1 to 10 nM
C[C@@H](c1cccc2c(-c3cnc(N)nc3)c(C(=O)O)[nH]c12)N1C[C@]2(C[C@@H](CN)C2)OC1=O: 0.1 to 1 nM
CC(c1cccc2c(-c3ccc(CS(C)(=O)=O)c(Cl)c3)c(C(=O)O)[nH]c12)n1cc(CCCN)nn1 (stereo not drawn): < 0.1 nM
C[C@@H](c1cccc2c(-c3c(F)cc(NS(C)(=O)=O)cc3F)c(C(=O)O)[nH]c12)n1cc(CN2CC(N)C2)oc1=O: 1 to 10 nM
CC(c1cccc2c(-c3ccc(CS(C)(=O)=O)c(F)c3)c(C(=O)O)[nH]c12)n1cc(CNC(=O)CN)oc1=O (stereo not drawn): 1 to 10 nM

Alright, here's another compound for you.
So what's the measured IC50 for this one? `CS(=O)(=O)Cc1ccc(-c2c(C(=O)O)[nH]c3c(COCc4ccc(CN)cc4)cccc23)cc1F`
> 10 nM
